- Test system: MS2 coat protein
- assay text: apparent KD of MS2 coat protein; designed switch direction (-1 OFF switch, 1 ON switch): -1; higher = weaker reporter binding
- condition info: input ligand: none
// bucketize apparent KD of MS2 coat protein: lower band: < 20 nM; central band: ≥ 20 nM and < 60 nM; upper band: ≥ 60 nM

See these solved cases before continuing.
ACUUAUUGAGGAUAUACAGAAAAUUACAUGAGGAUCACCCAUGUUCUUCAAUGUAUAUAUGUAGAAGGCAGAAGAU [Mat - Exclusion 5 - JL Mod - D16] (Eterna round: R97, puzzle: Exclusion 5) = lower band
GCGGGCUUGGGAGGAUAUACAUGAGGAUCACCCAUGUGUGUUCGGGCUGGCCGGUUUGGGCGCGUGUAGAAGGCUCGGGUUUGC [less GC, A 14%] (Eterna round: R96, puzzle: Exclusion NG 2) = lower band
AUAAGCCCGGCAGGAUAUCACAGGUUGCCGGGUAUCAACAUGAGGAUCACCCAUGUACACCUGCUUGAGAAGGGCCCAAGGGCG [Inarza] (Eterna round: R96, puzzle: Exclusion NG 2) = upper band
GUGAUCUAUCAUGUAAUGAACAUGAGGAUCACCCAUGUAGGCAGGUUUUUUGCUCGUCACAUAAUAAGAUAGAUCAC [Antenna 20 - Jieux - Sensor, turn-off variant 1] (Eterna round: R97, puzzle: Sensor, turn-off variant 1) = central band
CUCCGGCGUGUAGGAUAUGGUUCCGUUUUGGUUCCAGAAGGACAUGAGGAUCACCCAUGUACAUGUCGUCGGUCGUCACCGGGC [salish99_ExNG1_r04_214] (Eterna round: R96, puzzle: Exclusion NG 1) = central band
AGGGACUAAGGAUAUACUUAGGAGAUAAACGACUGGUGAACACUUGAGGAUCACCCAAGUAGAAGGUAGUCAAA [Enonsoor] (Eterna round: R97, puzzle: Exclusion 2) = central band

Proceed to the following item.
Problem: GET /class?item= GCUUGCGAAGUAAGGAUAUCGGUCCGAAAGGACUACGAGAAGGUACAUGAGGAUCACCCAUGUGCGAGCAGAAU [Mod of Zala 24 - Jieux - Brourd's mod of Exclusion 4] (Eterna round: R97, puzzle: Brourd's mod of Exclusion 4)
Result: central band
